# Test system: Escherichia coli TOP10;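 note: peptides expressed intracellularly from a pBAD plasmid library in pooled LB shake-flask culture, induced with 0.3% L-arabinose, DNA abundance read by NGS, three biological replicates, DESeq2 with apeglm shrinkage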
# METHOD DESCRIPTION: shrunken log2 fold change of peptide-encoding DNA abundance (4.5 h post-induction vs induction); higher = less antimicrobial activity (less host growth inhibition)
# PROTOCOL CONDITIONS: time post-induction: 4.5 h; library: site-saturation at positions 5, 18, 19, 20
MEASUREMENT KIND: shrunken log2 fold change
Respond numerically, and do not add a unit to the figure.

RRIRDRPPRLPRPRPRPGNLPRP :: -0.0298

Just so you know, measured shrunken log2 fold change for RRIRWRPPRLPRPRPRPCLKPRP came out at 0.0308

Just so you know, measured shrunken log2 fold change for RRIRWRPPRLPRPRPRPTQRPRP came out at 0.133

Just so you know, measured shrunken log2 fold change for RRIRNRPPRLPRPRPRPTSPPRP came out at 0.113

Data origin, for the record: the supplement of paper PMC9112550
